Sourced from ChEMBL document CHEMBL1131458

For each record, write down the corresponding Ki.
Biological target: Neutrophil collagenase (Homo sapiens)
Test: Inhibition of Matrix metalloprotease-8 (Human neutrophil collagenase, MMP-8)
Hi! Could you send only the number? It should be in µM, unit omitted.

*Q* Fill in: Ki of CC(C)CC(C(=O)NO)C(=O)Nc1ccccc1C(=O)NCc1ccccc1 (stereo unspecified) is ___
*A* 36

*Q* Fill in: Ki of CC(C)CC(C(=O)NO)C(=O)NC(CC(N)=O)C(=O)NCc1ccccc1 (stereo unspecified) is ___
*A* 55

*Q* Fill in: Ki of O=C(NO)C(O)C(=O)NCCCc1ccccc1 (stereo unspecified) is ___
*A* 2.3

*Q* Fill in: Ki of Cc1ccc(CCNC(=O)[C@H](CCc2ccccc2)NC(=O)C(Cc2ccccc2)C(=O)NO)cc1 (stereo partly specified) is ___
*A* 1.7

*Q* Fill in: Ki of CC(C)CC(C(=O)NO)C(=O)NCCCc1ccccc1 (stereo unspecified) is ___
*A* 0.54

*Q* Fill in: Ki of CC(C)CC(C(=O)NO)C(=O)NC(CO)C(=O)NCc1ccccc1 (stereo unspecified) is ___
*A* 35

*Q* Fill in: Ki of CCOC(=O)C(C(=O)NO)c1ccccc1 (stereo unspecified) is ___
*A* 98

*Q* Fill in: Ki of CCOC(=O)C(CC(C)C)C(=O)NO (stereo unspecified) is ___
*A* 190

*Q* Fill in: Ki of O=C(NO)C(CCc1ccccc1)C(=O)NCCCc1ccccc1 (stereo unspecified) is ___
*A* 0.49

*Q* Fill in: Ki of CC(C)CC(C(=O)NO)C(=O)NC(CC(=O)O)C(=O)NCc1ccccc1 (stereo in doubt; 12b) is ___
*A* 88

*Q* Fill in: Ki of COC(=O)c1ccc(CCNC(=O)[C@H](CCc2ccccc2)NC(=O)C(CC(C)C)C(=O)NO)cc1 (stereo partly specified) is ___
*A* 9.6

---

For each record, write down the corresponding Ki.
Target: Neutrophil collagenase (Homo sapiens)
Assay: Inhibition of Matrix metalloprotease-8 (Human neutrophil collagenase, MMP-8)
Hi! Could you send only the number? It should be in µM, unit omitted.

*Q* Fill in: Ki of CCOC(=O)C(Cc1ccccc1)C(=O)NO (stereo not given) is ___
*A* 53

*Q* Fill in: Ki of CC(C)C[C@H](C(=O)NO)C(=O)N[C@@H](C)C(=O)NCC(N)=O is ___
*A* 121

*Q* Fill in: Ki of Cc1ccc(CCNC(=O)[C@H](CCc2ccccc2)NC(=O)C(CCc2ccccc2)C(=O)NO)cc1 (stereo not given in full) is ___
*A* 4

*Q* Fill in: Ki of Cc1ccc(CCNC(=O)[C@H](CCc2ccccc2)NC(=O)C(O)C(=O)NO)cc1 (stereo not given in full) is ___
*A* 1.6

*Q* Fill in: Ki of CC(C)CC(C(=O)NO)C(=O)N1CCCC1C(=O)NCc1ccccc1 (stereo not given) is ___
*A* 168

---

Biological target: Neutrophil collagenase (Homo sapiens, UniProt P22894)
Sequence (P22894 whole entry): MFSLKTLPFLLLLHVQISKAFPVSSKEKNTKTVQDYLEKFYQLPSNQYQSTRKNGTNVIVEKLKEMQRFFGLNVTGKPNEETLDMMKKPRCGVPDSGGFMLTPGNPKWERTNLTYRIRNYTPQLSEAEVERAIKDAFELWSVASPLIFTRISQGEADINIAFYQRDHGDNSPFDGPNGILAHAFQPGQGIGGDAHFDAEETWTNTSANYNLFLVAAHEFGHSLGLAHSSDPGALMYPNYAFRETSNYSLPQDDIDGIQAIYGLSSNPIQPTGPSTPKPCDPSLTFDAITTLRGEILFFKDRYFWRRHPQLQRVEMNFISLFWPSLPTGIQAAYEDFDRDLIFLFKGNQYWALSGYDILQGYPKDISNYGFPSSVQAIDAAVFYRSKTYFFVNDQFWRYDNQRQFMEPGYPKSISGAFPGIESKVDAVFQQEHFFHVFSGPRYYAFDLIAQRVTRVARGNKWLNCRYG
Test: Inhibition of Matrix metalloprotease-8 (Human neutrophil collagenase, MMP-8)
For each record, write down the corresponding pKi.
Please keep in mind that pKi is minus log10 of the molar concentration; only the number is needed.

*Q* Fill in: pKi of CC(C)CC(C(=O)NO)C(=O)NC(CC(=O)O)C(=O)NCc1ccccc1 (stereo in doubt; 12) is ___
*A* 3.87

*Q* Fill in: pKi of CCOC(=O)C(CCc1ccccc1)C(=O)NO (stereo not drawn) is ___
*A* 3.72

*Q* Fill in: pKi of CC(C)CC(C(=O)NO)C(=O)N[C@@H](CCc1ccccc1)C(=O)NCCc1ccc(O)cc1 (stereo partly drawn) is ___
*A* 4.92

---

Target: Neutrophil collagenase (Homo sapiens)
Assay: Inhibition of Matrix metalloprotease-8 (Human neutrophil collagenase, MMP-8)
For each record, write down the corresponding pKi.
Please keep in mind that pKi is minus log10 of the molar concentration; only the number is needed.

*Q* // map Cc1ccc(CCNC(=O)[C@H](CCc2ccccc2)NC(=O)C(CC(C)C)C(=O)NO)cc1 (stereo partly specified) to recorded pKi (system: Neutrophil collagenase (Homo sapiens))
*A* 5.85

*Q* // map O=C(NO)C(CCc1ccccc1)C(=O)NCc1ccccc1 (stereo unspecified) to recorded pKi (system: Neutrophil collagenase (Homo sapiens))
*A* 5.64

*Q* // map CC(C)CC(C(=O)NO)C(=O)N[C@@H](CCc1ccccc1)C(=O)NCCc1ccc(C(=O)O)cc1 (stereo partly specified) to recorded pKi (system: Neutrophil collagenase (Homo sapiens))
*A* 4.70

*Q* // map O=C(NO)C(Cc1ccccc1)C(=O)NCc1ccccc1 (stereo unspecified) to recorded pKi (system: Neutrophil collagenase (Homo sapiens))
*A* 5.51

*Q* // map O=C(NO)C(Cc1ccccc1)C(=O)N1CCOCC1 (stereo unspecified) to recorded pKi (system: Neutrophil collagenase (Homo sapiens))
*A* 4.30

*Q* // map CCCCCCCCNC(=O)C(CC(C)C)C(=O)NO (stereo unspecified) to recorded pKi (system: Neutrophil collagenase (Homo sapiens))
*A* 6.62

*Q* // map CC(C)CC(C(=O)NO)C(=O)NC(CC(N)=O)C(=O)NCc1cccc(N)c1 (stereo unspecified) to recorded pKi (system: Neutrophil collagenase (Homo sapiens))
*A* 4.59

*Q* // map CC(C)CC(C(=O)NO)C(=O)NC(Cc1ccccc1)C(=O)NCc1ccccc1 (stereo unspecified) to recorded pKi (system: Neutrophil collagenase (Homo sapiens))
*A* 4.60

*Q* // map O=C(NO)C(Cc1ccccc1)C(=O)NCCCc1ccccc1 (stereo unspecified) to recorded pKi (system: Neutrophil collagenase (Homo sapiens))
*A* 6.25

*Q* // map CC(C)CC(C(=O)NO)C(=O)N[C@H](C)C(=O)NCc1ccccc1 (stereo partly specified) to recorded pKi (system: Neutrophil collagenase (Homo sapiens))
*A* 3.71

*Q* // map CC(C)CC(C(=O)NO)C(=O)NC(C)C(=O)NCc1ccccc1 (stereo unspecified) to recorded pKi (system: Neutrophil collagenase (Homo sapiens))
*A* 4.30
